- experimental-target: α1 adrenergic receptor
- assay-explanation: α1 adrenergic receptor [3H]prazosin binding, rat cerebral cortex preparation
- experimental-parameters: [3H]prazosin 0.25 nM, 60 min at 22° C., read-out: Inhibition of radioligand binding, affinity (Ki)
Where a name gives a salt, the structure may show the parent alone.
metric-name: pKi
The meaning of pKi here: minus log10 of the concentration in molar units.

Prompt line: Quick one: give measured pKi for Cc1ccc([C@]23CNC[C@H]2C3)cc1 (racemic) [Bicifadine HCl]
Response line: 6.00

* * *

- experimental-target: serotonin transporter protein (Homo sapiens, UniProt P31645)
- Sequence (P31645 whole entry): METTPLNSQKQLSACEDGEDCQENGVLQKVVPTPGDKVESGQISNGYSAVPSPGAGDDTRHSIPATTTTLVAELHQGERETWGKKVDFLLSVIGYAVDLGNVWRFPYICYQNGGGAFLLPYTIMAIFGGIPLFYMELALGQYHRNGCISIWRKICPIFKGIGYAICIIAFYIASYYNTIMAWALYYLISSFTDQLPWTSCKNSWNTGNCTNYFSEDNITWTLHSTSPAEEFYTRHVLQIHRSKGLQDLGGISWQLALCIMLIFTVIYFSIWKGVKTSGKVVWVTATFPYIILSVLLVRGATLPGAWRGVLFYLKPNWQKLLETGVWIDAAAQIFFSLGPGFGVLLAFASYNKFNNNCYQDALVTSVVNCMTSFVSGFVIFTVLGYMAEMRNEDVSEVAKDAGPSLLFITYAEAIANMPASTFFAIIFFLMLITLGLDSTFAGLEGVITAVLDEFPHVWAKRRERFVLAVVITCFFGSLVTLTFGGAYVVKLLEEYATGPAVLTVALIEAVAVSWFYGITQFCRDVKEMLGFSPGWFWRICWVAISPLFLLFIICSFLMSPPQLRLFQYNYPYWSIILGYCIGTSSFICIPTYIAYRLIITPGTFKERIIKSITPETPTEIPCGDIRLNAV
- assay-explanation: [3H]serotonin uptake in HEK 293 cells expressing the transporter
- experimental-parameters: recombinant human serotonin transporter, 20 nM [3H]serotonin, read-out: inhibition of [3H]Serotonin uptake (IC50)
Counter-ions that a name gives are not always drawn.
metric-name: pIC50
The meaning of pIC50 here: minus log10 of the concentration in molar units.

Prompt line: Quick one: give measured pIC50 for Cc1ccc([C@]23CNC[C@H]2C3)cc1 (racemic) [Bicifadine HCl]
Response line: 6.93

Origin of the recorded values: patent US20080009538A1
